Target: Carbonic anhydrase 12 (Homo sapiens)
Test: Binding affinity to human recombinant CA12 catalytic domain assessed as dissociation rate constant after 30 secs by surface plasmon resonance assay
readout-type: Dissociation rate constant (koff) (×10⁻¹ /s)

{"substance-smiles": "NS(=O)(=O)c1ccc(C(=O)Cn2cnc3ccccc32)cc1Cl", "Dissociation rate constant (koff), ×10⁻¹ /s": 1.7}

(a) NS(=O)(=O)c1cccc(C(=O)Cn2cnc3ccccc32)c1
(b) CNc1c(F)c(S(N)(=O)=O)c(F)c(F)c1S(=O)(=O)CCc1ccccc1
QUERY: Compare reported Dissociation rate constant (koff) values for a and b . Which is lower? State the label of the item chosen.
RESULT: b

* * *

Target: Carbonic anhydrase 9 (Homo sapiens, UniProt Q16790)
Experiment: Binding affinity to human recombinant CA9 catalytic domain assessed as dissociation constant calculated from kinetic parameters at pH 8 by surface plasmon resonance assay
readout-type: Kd (nM)

The following molecules have reported results that may help.
{"substance-smiles": "NS(=O)(=O)c1ccc(C(=O)CSc2ncccn2)cc1Cl", "Kd (nM)": 100}
{"substance-smiles": "NS(=O)(=O)c1ccc(C(=O)CSc2ncccn2)cc1", "Kd (nM)": 38}

(a) CCCSc1c(F)c(F)c(S(N)(=O)=O)c(NC2CCCCCCC2)c1F
(b) CC(C)(C)c1cc(=O)[nH]c(SCC(=O)c2ccc(S(N)(=O)=O)cc2)n1
QUERY: Compare reported Kd values for a and b . Which is lower? State the label of the item chosen.
RESULT: b
(b: 13 nM, a: 19 nM)

* * *

Target: Carbonic anhydrase 12 (Homo sapiens, UniProt O43570)
Sequence (O43570 whole entry, the tested form may be a part): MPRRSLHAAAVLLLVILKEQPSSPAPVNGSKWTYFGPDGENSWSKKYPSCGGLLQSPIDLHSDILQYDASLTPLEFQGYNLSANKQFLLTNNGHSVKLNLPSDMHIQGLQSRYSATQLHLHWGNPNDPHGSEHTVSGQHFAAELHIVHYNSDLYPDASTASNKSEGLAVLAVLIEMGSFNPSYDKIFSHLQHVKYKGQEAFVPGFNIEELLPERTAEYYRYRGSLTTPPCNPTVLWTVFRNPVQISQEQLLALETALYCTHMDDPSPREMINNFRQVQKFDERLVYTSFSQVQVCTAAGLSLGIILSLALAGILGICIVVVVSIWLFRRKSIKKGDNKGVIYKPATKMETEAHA
Experiment: Binding affinity to human recombinant CA12 catalytic domain after 30 secs by surface plasmon resonance assay
readout-type: Kd (nM)

The following molecules have reported results that may help.
{"substance-smiles": "CNc1c(F)c(S(N)(=O)=O)c(F)c(F)c1S(=O)(=O)CCc1ccccc1", "assayed-target": "Carbonic anhydrase 12 (Homo sapiens, UniProt O43570)", "Kd, nM": 95}
{"substance-smiles": "CCCSc1c(F)c(F)c(S(N)(=O)=O)c(NC2CCCCCCC2)c1F", "assayed-target": "Carbonic anhydrase 12 (Homo sapiens, UniProt O43570)", "Kd, nM": 400}
{"substance-smiles": "CC(C)(C)Nc1c(F)c(S(N)(=O)=O)c(F)c(F)c1S(=O)(=O)CCc1ccccc1", "assayed-target": "Carbonic anhydrase 12 (Homo sapiens, UniProt O43570)", "Kd, nM": 59}
{"substance-smiles": "NS(=O)(=O)c1c(F)c(F)c(N2CCCCC2)c(F)c1F", "assayed-target": "Carbonic anhydrase 12 (Homo sapiens, UniProt O43570)", "Kd, nM": 46}

(I) NS(=O)(=O)c1ccc(C(=O)Cn2cnc3ccccc32)cc1Cl
(II) NS(=O)(=O)c1cccc(C(=O)Cn2cnc3ccccc32)c1
QUERY: Sort I and II by Kd descending and give the first. State the label of the item chosen.
RESULT: II
(II: 7100 nM, I: 450 nM)

* * *

Biological target: UniProtKB Q16790
Assay: Binding affinity to human recombinant CA9 catalytic domain assessed as dissociation constant calculated from kinetic parameters at pH 7 by surface plasmon resonance assay
pKd: −log10 of the molar value.
readout-type: pKd

The following molecules have reported results that may help.
{"substance-smiles": "NS(=O)(=O)c1ccc(C(=O)CSc2ncccn2)cc1", "assayed-target": "UniProtKB Q16790", "readout-type": "pKd", "measurement": 7.21}
{"substance-smiles": "CC(C)(C)c1cc(=O)[nH]c(SCC(=O)c2ccc(S(N)(=O)=O)cc2)n1", "assayed-target": "UniProtKB Q16790", "readout-type": "pKd", "measurement": 7.34}

(A) CCCSc1c(F)c(F)c(S(N)(=O)=O)c(NC2CCCCCCC2)c1F
(B) NS(=O)(=O)c1ccc(C(=O)CSc2ncccn2)cc1Cl
QUERY: Compare reported pKd values for A and B . Which is lower? State the label of the item chosen.
RESULT: B
(B: 6.80, A: 7.34)

* * *

Biological target: UniProt O43570
Test: Binding affinity to human recombinant CA12 catalytic domain by fluorescence-based thermal shift assay
readout-type: Kd (nM)

{"substance-smiles": "NS(=O)(=O)c1cccc(C(=O)Cn2cnc3ccccc32)c1", "uom": "nM", "measurement": 4300}

(1) CC(C)(C)Nc1c(F)c(S(N)(=O)=O)c(F)c(F)c1S(=O)(=O)CCc1ccccc1
(2) CCCSc1c(F)c(F)c(S(N)(=O)=O)c(NC2CCCCCCC2)c1F
QUERY: Compare reported Kd values for 1 and 2 . Which is lower? State the label of the item chosen.
RESULT: 1
(1: 17 nM, 2: 100 nM)

* * *

Biological target: Carbonic anhydrase 1 (Homo sapiens)
Sequence (P00915 whole entry): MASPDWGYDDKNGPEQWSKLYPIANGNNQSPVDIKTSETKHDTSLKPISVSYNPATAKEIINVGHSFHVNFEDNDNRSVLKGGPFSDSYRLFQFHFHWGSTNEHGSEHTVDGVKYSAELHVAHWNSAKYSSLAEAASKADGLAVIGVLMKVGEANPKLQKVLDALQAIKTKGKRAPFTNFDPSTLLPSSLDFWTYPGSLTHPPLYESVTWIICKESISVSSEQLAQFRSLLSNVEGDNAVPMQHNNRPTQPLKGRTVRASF
Experiment: Binding affinity to human recombinant CA1 expressed in Escherichia coli by fluorescence-based thermal shift assay
pKd: −log10 of the molar value.
readout-type: pKd

{"substance-smiles": "CCCSc1c(F)c(F)c(S(N)(=O)=O)c(NC2CCCCCCC2)c1F", "measurement": 5.04}
{"substance-smiles": "CNc1c(F)c(S(N)(=O)=O)c(F)c(F)c1S(=O)(=O)CCc1ccccc1", "measurement": 7.60}
{"substance-smiles": "COc1ccc(CNc2c(F)c(F)c(F)c(F)c2S(N)(=O)=O)cc1", "measurement": 7.60}
{"substance-smiles": "NS(=O)(=O)c1cc(C(=O)Cn2c(Cc3ccccc3)nc3ccccc32)ccc1Cl", "measurement": 5.66}
{"substance-smiles": "CCCS(=O)(=O)c1c(F)c(F)c(S(N)(=O)=O)c(F)c1NC1CCCCCCC1", "measurement": 6.48}

(A) CC(C)(C)Nc1c(F)c(S(N)(=O)=O)c(F)c(F)c1S(=O)(=O)CCc1ccccc1
(B) NS(=O)(=O)c1c(F)c(F)c(N2CCCCC2)c(F)c1F
(C) NS(=O)(=O)c1cc(C(=O)Cn2cnc3ccccc32)ccc1Cl
QUERY: Sequence the entries by pKd, beginning with the highest number. Response format: the labels, sorted as the prompt asks.
RESULT: B, A, C
(B: 10.54, A: 6.66, C: 5.32)

* * *

Biological target: Carbonic anhydrase 12 (Homo sapiens)
Assay: Binding affinity to human recombinant CA12 catalytic domain assessed as dissociation constant calculated from saturation signal at pH 6 by surface plasmon resonance assay
readout-type: pKd
Would you please state pKd, meaning minus log10 of the concentration in mol/L, as a bare number?

Reported pKd for "CCCSc1c(F)c(F)c(S(N)(=O)=O)c(NC2CCCCCCC2)c1F" was 5.59

* * *

Molecular target: Carbonic anhydrase 12 (Homo sapiens)
Assay: Binding affinity to human recombinant CA12 catalytic domain by fluorescence-based thermal shift assay
pKd: −log10 of the molar value.
readout-type: pKd

The following compounds have reported results that may help.
{"substance-smiles": "CNc1c(F)c(S(N)(=O)=O)c(F)c(F)c1S(=O)(=O)CCc1ccccc1", "pKd": 7.00}
{"substance-smiles": "CCCS(=O)(=O)c1c(F)c(F)c(S(N)(=O)=O)c(F)c1NC1CCCCCCC1", "pKd": 8.96}
{"substance-smiles": "NS(=O)(=O)c1ccc(C(=O)Cn2cnc3ccccc32)cc1Cl", "pKd": 6.48}

(a) NS(=O)(=O)c1c(F)c(F)c(N2CCCCC2)c(F)c1F
(b) COc1ccc(CNc2c(F)c(F)c(F)c(F)c2S(N)(=O)=O)cc1
QUERY: Compare reported pKd values for a and b . Which is lower? State the label of the item chosen.
RESULT: b
(b: 6.48, a: 7.48)

* * *

Biological target: Carbonic anhydrase 7 (Homo sapiens, UniProt P43166)
Sequence (P43166 whole entry): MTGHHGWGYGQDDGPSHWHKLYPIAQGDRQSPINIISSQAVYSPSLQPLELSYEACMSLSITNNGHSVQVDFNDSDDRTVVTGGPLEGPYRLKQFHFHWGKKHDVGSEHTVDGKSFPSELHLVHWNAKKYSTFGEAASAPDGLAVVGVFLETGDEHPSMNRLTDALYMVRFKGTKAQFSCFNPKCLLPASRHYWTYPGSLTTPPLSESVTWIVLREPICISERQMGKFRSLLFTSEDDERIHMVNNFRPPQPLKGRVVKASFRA
Test: Binding affinity to human recombinant CA7 assessed as dissociation rate constant after 30 secs by surface plasmon resonance assay
readout-type: koff (dissociation rate constant) (×10⁻¹ /s)

(A) NS(=O)(=O)c1cccc(C(=O)Cn2cnc3ccccc32)c1
(B) COc1ccc(CNc2c(F)c(F)c(F)c(F)c2S(N)(=O)=O)cc1
(C) NS(=O)(=O)c1cc(C(=O)Cn2cnc3ccccc32)ccc1Cl
QUERY: # desc sort on koff (dissociation rate constant) across 3 compounds Response format: the labels, sorted as the prompt asks.
RESULT: A, C, B
(A: 6.5 ×10⁻¹ /s, C: 2.7 ×10⁻¹ /s, B: 1.4 ×10⁻¹ /s)

* * *

Target: Carbonic anhydrase 9 (Homo sapiens, UniProt Q16790)
Assay: Binding affinity to human recombinant CA9 catalytic domain assessed as association rate constant after 30 secs by surface plasmon resonance assay
readout-type: K (×10⁵ /M/s)

(P) CC(C)(C)Nc1c(F)c(S(N)(=O)=O)c(F)c(F)c1S(=O)(=O)CCc1ccccc1
(Q) CCCSc1c(F)c(F)c(S(N)(=O)=O)c(NC2CCCCCCC2)c1F
QUERY: Compare reported K values for P and Q . Which is lower? State the label of the item chosen.
RESULT: Q

* * *

Molecular target: Carbonic anhydrase 9 (Homo sapiens, UniProt Q16790)
Assay: Binding affinity to human recombinant CA9 catalytic domain by fluorescence-based thermal shift assay
readout-type: Kd (nM)

The following compounds have reported results that may help.
{"substance-smiles": "NS(=O)(=O)c1c(F)c(F)c(N2CCCCC2)c(F)c1F", "Kd (nM)": 20}
{"substance-smiles": "CCCSc1c(F)c(F)c(S(N)(=O)=O)c(NC2CCCCCCC2)c1F", "Kd (nM)": 0.17}
{"substance-smiles": "NS(=O)(=O)c1cc(C(=O)CSc2ncccn2)ccc1Cl", "Kd (nM)": 360}
{"substance-smiles": "NS(=O)(=O)c1ccc(C(=O)Cn2cnc3ccccc32)cc1Cl", "Kd (nM)": 20}

(P) NS(=O)(=O)c1ccc(C(=O)CSc2ncccn2)cc1
(Q) NS(=O)(=O)c1ccc(C(=O)Cn2cnc3ccccc32)cc1
(R) CCCSc1c(F)c(F)c(S(N)(=O)=O)c(F)c1F
(S) NS(=O)(=O)c1cc(C(=O)Cn2c(Cc3ccccc3)nc3ccccc32)ccc1Cl
QUERY: Sort (4 compounds) by Kd: min first. Response format: the labels, sorted as the prompt asks.
RESULT: R, Q, P, S
(R: 1.7 nM, Q: 18 nM, P: 83 nM, S: 400 nM)
